The values you see were collected from paper PMC5421785.

molecular target: HLA-DRB1*01:01 (Homo sapiens, UniProt P01903+P01911, A100R/D57E/F55L/F60I/F76Y/I96L/L162R/M171V/P40L/Q125E/R42F/V115G/Y59C); construct: EBV transformed homozygous cell lines were used as sources of MHC molecules; endogenous in cells; host or cells: EBV transformed homozygous cell lines; experiment: HLA class II peptide binding, inhibition of radiolabeled peptide binding to purified MHC; conditions: citrullinated 15-mer peptide (X = citrulline); purified HLA-DRB1*01:01; read-out: DRB1*01:01 binding capacity, Cit peptide (IC50 nM)
Square brackets hold non-standard residues; d marks the D form. Peptide text beside a SMILES is read from it. Cit = NC(=O)NCCC[C@H](N)C(=O)O
Would you kindly list IC50 for each of these compounds?
// units = nM; emit number, no label

stdin: Returns the measured IC50 for the input compound. Input: CC(C)[C@H](NC(=O)[C@H](CC(=O)O)NC(=O)CNC(=O)[C@H](CCCNC(N)=O)NC(=O)[C@@H](N)CC(=O)O)C(=O)NCC(=O)N[C@@H](CCC(=O)O)C(=O)N[C@@H](CCCCN)C(=O)NCC(=O)N1CCC[C@H]1C(=O)N[C@@H](CCC(=O)O)C(=O)NCC(=O)N[C@@H](C)C(=O)N1CCC[C@H]1C(=O)NCC(=O)O [DXGDVGEKGPEGAPG] (H-D[Cit]GDVGEKGPEGAPG-OH)
stdout: 2270

stdin: Returns the measured IC50 for the input compound. Input: CC[C@H](C)[C@H](NC(=O)CN)C(=O)N[C@H](C(=O)NCC(=O)N[C@@H](CC(C)C)C(=O)N1CCC[C@H]1C(=O)NCC(=O)N[C@@H](CCC(N)=O)C(=O)N[C@@H](CCCNC(N)=O)C(=O)NCC(=O)N[C@@H](CCC(=O)O)C(=O)N[C@@H](CCCNC(=N)N)C(=O)NCC(=O)N[C@@H](Cc1ccccc1)C(=O)N1CCC[C@H]1C(=O)O)C(C)C [GIVGLPGQXGERGFP] (H-GIVGLPGQ[Cit]GERGFP-OH)
stdout: 3.6

====

Would you kindly list IC50 for each of these compounds?
target: HLA-DRB1*04:01 (Homo sapiens, UniProt P01903+P01911, A100K/A169T/F76Y/I96L/K127E/L162R/M171V/N62H/P40V/Q125Y/R42H/S133A/S149N/S66Y/V115G/V209L/W38E); construct: EBV transformed homozygous cell lines were used as sources of MHC molecules; endogenous in cells; host or cells: EBV transformed homozygous cell lines; test: HLA class II peptide binding, inhibition of radiolabeled peptide binding to purified MHC; conditions: citrullinated peptide as listed (X at Cit position); read-out: DRB1*04:01 binding capacity Cit peptide (IC50 nM)
Square brackets hold non-standard residues; d marks the D form. Peptide text beside a SMILES is read from it. Cit = NC(=O)NCCC[C@H](N)C(=O)O
// units = nM; emit number, no label

stdin: Returns the measured IC50 for the input compound. Input: CC[C@H](C)[C@H](NC(=O)[C@H](CC(=O)O)NC(=O)[C@@H](NC(=O)[C@@H](NC(=O)[C@@H]1CCCN1C(=O)[C@H](CC(C)C)NC(=O)[C@H](CCCNC(=N)N)NC(=O)[C@H](CO)NC(=O)[C@@H](NC(=O)[C@H](CCCCN)NC(=O)[C@H](CCC(N)=O)NC(=O)[C@H](CO)NC(=O)[C@H](CCCNC(N)=O)NC(=O)[C@H](Cc1ccc(O)cc1)NC(=O)[C@@H](N)CCC(=O)O)[C@@H](C)O)[C@@H](C)CC)[C@@H](C)CC)C(=O)O [EYXSQKTSRLPIIDI] (H-EY[Cit]SQKTSRLPIIDI-OH)
stdout: 473

stdin: Returns the measured IC50 for the input compound. Input: CC[C@H](C)[C@H](N)C(=O)N[C@@H](CCCNC(N)=O)C(=O)N[C@@H](C)C(=O)N[C@@H](CCC(=O)O)C(=O)NCC(=O)N[C@@H](CC(N)=O)C(=O)N[C@@H](CO)C(=O)N[C@@H](CCCNC(=N)N)C(=O)N[C@@H](Cc1ccccc1)C(=O)N[C@H](C(=O)N[C@@H](Cc1ccc(O)cc1)C(=O)N[C@H](C(=O)N[C@@H](C)C(=O)N[C@@H](CC(C)C)C(=O)N[C@@H](CCCCN)C(=O)O)[C@@H](C)O)[C@@H](C)O [IXAEGNSRFTYTALK] (H-I[Cit]AEGNSRFTYTALK-OH)
stdout: 2310
